Form field: C50 (one value per entry).
# experimentalSystem: Major prion protein (Mesocricetus auratus) (UniProt P04273)
# Sequence (P04273 whole entry): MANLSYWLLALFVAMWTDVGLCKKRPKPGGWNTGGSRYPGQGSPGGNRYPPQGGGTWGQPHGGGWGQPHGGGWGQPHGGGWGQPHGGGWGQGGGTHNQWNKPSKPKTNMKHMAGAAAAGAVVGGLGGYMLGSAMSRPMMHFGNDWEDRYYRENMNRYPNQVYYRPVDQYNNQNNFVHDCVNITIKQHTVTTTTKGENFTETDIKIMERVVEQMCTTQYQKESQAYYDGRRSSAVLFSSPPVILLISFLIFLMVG
# protocolDetails: Inhibition of Syrian hamster prion protein (109-149) aggregation assessed as compound concentration required to inhibit 50% aggregation by spectrofluorimetric analysis

The examples below pair each entry with its known result.
# compoundStructure, C50
rows = [
    ("OCCNc1ccnc2cc(Cl)ccc12", "> 1 µM"),
    ("CCN(CC)CCNc1ccnc2cc(SC(F)(F)F)ccc12", "> 1 µM"),
    ("CNc1ccnc2cc(Cl)ccc12", "> 0.9 µM"),
    ("Nc1ccnc2cc(Cl)ccc12", "0.2 µM"),
    ("CN(C)CCNc1ccnc2cc(Cl)ccc12", "> 1 µM"),
    ("NCCNc1ccnc2cc(Cl)ccc12", "0.1 µM"),
]

Q) C50 of Clc1ccc2c(NC3CCCC3)ccnc2c1 on Major prion protein (Mesocricetus auratus) (UniProt P04273)?
A) > 1 µM
